All figures here come from patent US10208007B2.

- Test system: MDA-MB-436
- Measurement Description: Crystal violet monolayer growth assay
- Assay type: cell-based, human
- Measurement Setup: Homo sapiens, MDA-MB-436, 168 h, after 7 days; read-out: IC50 of long-term proliferation
Quantity: pIC50
Entry type: numeric. Quantity: pIC50, the -log10 of concentration in molar units.

Query string: Given the molecule CC1=C[C@H](O/C=C2/C(=O)O[C@@H]3c4ccccc4C[C@H]23)OC1=O (relative stereo) , what is its reported pIC50?
Result string: 4.73

###

- Tested on: MCF10A
- Measurement Setup: 3 days
Quantity: IC50 at 72 h

Query string: Hi! What's the reported IC50 at 72 h for CC1=CC(O/C=C2\Cc3c(n(C)c4cc(-c5cccs5)ccc34)C2=O)OC1=O (racemic) on MCF10A?
Result string: >15 ppm

Query string: Another compound: CC1=CC(O/C=C2/C(=O)c3c(c4cc(-c5scc6c5OCCO6)ccc4n3C)C2C)OC1=O (centres unmarked)
Result string: >15 ppm

Query string: Another compound: CC1=CC(O/C=C2/C(=O)c3c(c4cc(-c5cccs5)ccc4n3C)C2C)OC1=O (centres unmarked)
Result string: >15 ppm

Query string: // repeat for CC1=CC(O/C=C2\Cc3c(n(C)c4ccccc34)C2=O)OC1=O (racemic) and report
Result string: >15 ppm

Query string: Param item: CC1=CC(O/C=C2\Cc3c(n(C)c4ccc(-c5ccc(N(C)C)cc5)cc34)C2=O)OC1=O (racemic)
Result string: >15 ppm

###

- Test system: HT-29
- Measurement Description: XTT viability assay
- Assay type: cell-based, human
- Measurement Setup: HT-29, 3 days
Quantity: IC50 at 72 h (ppm)
Give your result in ppm as a bare value.

Query string: I'd like to know its IC50 at 72 h. The compound in question is CC1=CC(O/C=C2\Cc3c(n(C)c4cc(-c5cccs5)ccc34)C2=O)OC1=O (racemic)
Result string: 8.2

Query string: What do you get for CC1=CC(O/C=C2/C(=O)c3c(c4cc(-c5scc6c5OCCO6)ccc4n3C)C2C)OC1=O (centres unmarked) ?
Result string: 7.3

###

- Test system: T47D
- Measurement Description: XTT viability assay
- Type: cell-based, human
- Measurement Setup: 3 days
Quantity: IC50 at 72 h (ppm)
Number only, in ppm; omit the unit.

Query string: Which IC50 at 72 h value is on record for CC1=CC(O/C=C2\Cc3c(n(C)c4ccccc34)C2=O)OC1=O (racemic) ?
Result string: 8.8

Query string: Now consider CC1=CC(O/C=C2\Cc3c(n(C)c4cc(-c5cccs5)ccc34)C2=O)OC1=O (racemic) and answer again.
Result string: 5.0

Query string: Again, but for CC1=CC(O/C=C2/C(=O)c3c(c4cc(-c5scc6c5OCCO6)ccc4n3C)C2C)OC1=O (centres unmarked)
Result string: 8.6

###

I'd appreciate it if you could supply Dose to block/inhibit mammosphere formation, fold lower than for monolayer growth values for the items below.
- System: MCF-7 mammospheres
- Measurement Description: Mammosphere formation
- Type: cell-based, human
- Measurement Setup: MCF-7

Query string: For the record CC1=C[C@H](O/C=C2/C(=O)O[C@@H]3c4ccccc4C[C@H]23)OC1=O (relative stereo) [GR-24] , what value of Dose to block/inhibit mammosphere formation, fold lower than for monolayer growth is listed for MCF-7 mammospheres?
Result string: 5.7 fold

Query string: Try CC1=CC(O/C=C2\Cc3c(n(C)c4cc(-c5cccs5)ccc34)C2=O)OC1=O (racemic) [MEB-55] next.
Result string: 5 fold

Query string: Cool, now CC1=CC(O/C=C2/C(=O)c3c(c4cc(-c5scc6c5OCCO6)ccc4n3C)C2C)OC1=O (stereo not shown) [ST-362]
Result string: 5 fold

Query string: Next record, please: CC1=CC(O/C=C2/C(=O)c3c(c4cc(-c5cccs5)ccc4n3C)C2C)OC1=O (stereo not shown) [ST-357]
Result string: 3 fold
